- measurementDescription: qHTS for Inhibitors of the Functional Ribonucleoprotein Complex (vRNP) of Lassa (LASV) Arenavirus: Viability assay - alamar blue signal for LASV Primary Screen (AID 1347083); further: nearly all actives have a fitted effect of over 80% in size
- studyConditions: cell viability, alamar blue fluorescence (LASV minigenome counter-screen); series mostly up to 57.5 µM
Results filed as inconclusive are left out. Active and inactive are the calls of the source. The call rests on the fitted dose curve; tested in HEK293 reporter line.
Possible outcomes: y (active), n (inactive)

1) CC(=O)OCC(=O)[C@@]12N=C(C)O[C@H]1C[C@H]1[C@@H]3CCC4=CC(=O)C=C[C@]4(C)[C@@H]3[C@@H](O)C[C@@]12C	n
2) COc1ccc(C=Cc2cc(OC)c(OC)c(OC)c2)cc1NC(=O)[C@H](N)CO	y
3) COC(=O)c1ccccc1OC	n
4) Nn1nnc2ccccc21	n
5) c1cncc([C@@H]2CCCCN2)c1	n
6) C[C@H]1[C@H](C)CC[C@]2(C(=O)O)CC[C@]3(C)C(=CC[C@@H]4[C@@]5(C)C[C@@H](O)[C@H](O)C(C)(C)[C@@H]5CC[C@]43C)[C@H]12	n
7) CC(C)[C@H](CO)Nc1nc(Nc2cccc(Cl)c2)c2ncn(C(C)C)c2n1	n
8) CCCCCCCCCCCCC	n
9) COc1cc2c(CCNC(C)=O)c[nH]c2cc1Cl	n
10) CC(=O)Nc1ccccc1O	n
11) CCC(=O)Nc1ccccc1	n

* * *

- measurementDescription: qHTS for Inhibitors of the Functional Ribonucleoprotein Complex (vRNP) of Lassa (LASV) Arenavirus: Viability assay - alamar blue signal for LASV Primary Screen (AID 1347083); further: nearly all actives have a fitted effect of over 80% in size
- studyConditions: cell viability, alamar blue fluorescence (LASV minigenome counter-screen); series mostly up to 57.5 µM
Inconclusive results are not listed. Calls of active or inactive are those of the source. Calls come from the whole dose curve; tested in HEK293 reporter line.
Outcome codes: active, inactive

1. CC1(C)CCC=[N+]1[O-]	inactive
2. CC(C)CCO	inactive
3. O=[N+]([O-])c1ccc(CSc2ncnc3c2ncn3[C@@H]2O[C@H](CO)[C@@H](O)[C@H]2O)cc1	inactive
4. COc1cc2c(c(OC)c1OC)-c1c(cc3c(c1OC)OCO3)C[C@H](C)[C@@](C)(O)C2	inactive
5. CC(C)(O)[C@H](O)Cc1cc2ccc(=O)oc2cc1O[C@@H]1O[C@H](CO)[C@@H](O)[C@H](O)[C@H]1O	inactive
6. Clc1ccc(N2CCN(Cc3cc4ccccn4n3)CC2)cc1	inactive
7. CCc1ccc(/C=C2/SC(=S)NC2=O)cc1	inactive
8. CC(=O)O[C@H]1CC2(C)[C@@H](C[C@@H](O)[C@H]3[C@@]4(C)CC[C@@H](O)[C@@H](C)[C@@H]4CC[C@@]32C)C1=C(CCC=C(C)C)C(=O)O (stereo partly drawn)	inactive
9. COc1cc(C(O)CO)ccc1OS(=O)(=O)O (stereo not drawn)	inactive
10. CCCSSCCC	inactive
11. C[C@@]1(C(=O)Nc2ccc(F)nc2)CCCN1c1nc(Nc2cc(C3CC3)[nH]n2)c2cccn2n1	active
12. O=C(NCc1ccccc1)[C@H](Cc1ccccc1)NC(=O)[C@@H]1O[C@@H]1C(=O)NCCc1ccc(O)cc1	inactive
13. C=CCCCCCCCCC=O	inactive
14. Ic1ccc(N2CCN(Cc3c[nH]c4ncccc34)CC2)cc1	inactive
15. CCOC(=O)Cc1ccccc1	inactive
16. CCCCCCCCCCCCCCCCCCCCCCO	inactive
17. c1cncc(C2CCCN2)c1 (stereo not drawn)	inactive
18. C/C=C/c1ccc(OC(C)[C@@H](O)c2ccc(O)c(OC)c2)c(OC)c1 (stereo partly drawn)	inactive
19. CCCCCCCCCCCCCCCC(=O)O[C@H]1[C@@H](O)[C@@H](O)[C@@H]([C@H](NC(=O)[C@@H]2C[C@@H](CCC)CN2C)[C@H](C)Cl)O[C@@H]1SC	inactive
20. NC1=NCCCC1	inactive
21. O=C(O)C(=O)Nc1cccc(C2=NN=N[N]2)c1	inactive
22. O=c1cc(-c2ccc(O)cc2)oc2cc(O)cc(O)c12	inactive
23. O=C(O)/C=C/c1ccccc1	inactive

* * *

- measurementDescription: UWB1.289 Cancer Cell Toxicity qHTS against the NCATS CANVASS Library (AID 1347347); further: nearly all actives have a fitted effect of over 60% in size
- studyConditions: UWB1.289 viability, CellTiter-Glo luminescence, 72 h; series mostly up to 38.3 µM
Results filed as inconclusive are left out. Activity calls are given as the source filed them. Calls follow the shape of the dose curve; as a rule, active = well fitted cell-killing curve with a large enough effect; inconclusive = small, poorly fitted or top-dose-only effect; inactive = flat fitted curve, though single readings scatter.
Possible outcomes: Y = active, N = inactive

1. CCCCC[C@@H]1OC(=O)[C@@H](C)N(C)C(=O)[C@H](CCCCC)OC(=O)C(C)N(C)C(=O)[C@H](CCCCC)OC(=O)[C@@H](C)N(C)C(=O)[C@H](CCCCC)OC(=O)C(C)N(C)C1=O (stereo partly specified)	Y
2. C[C@@H]1CC[C@@H](c2ccoc2)N2C[C@@]3(CC[C@@H]12)CS[C@@]1(CC[C@H]2[C@H](C)CC[C@@H](c4ccoc4)N2[C@@H]1O)C3	Y
3. C/C=C1/CN2CC[C@]34C(=Nc5ccccc53)[C@@H]2C[C@@H]1[C@H]4C(=O)OC	N
4. CCN1C[C@]2(C)CC[C@@H](O)[C@]34C1[C@H](C[C@H]23)C12CCC(CC14)[C@](O)(CO)[C@H]2O (stereo partly specified)	N
5. CNCCc1ccccc1	N
6. CC[N@@+]1([O-])C[C@]2(C)CC[C@@H](O)[C@@]34C5C[C@H]6CC[C@@]5(C(C[C@H]23)C41)[C@H](O)[C@@]6(O)CO (stereo partly specified)	N
7. CO[C@H](c1ccccc1)[C@H]1NC(=O)C(C)NC(=O)C(C[C@@H](C)CO)N(C)C(=O)[C@@H](C(O)c2cn(C(C)(C)C3CO3)c3ccccc23)NC(=O)C(C(C)C=C(C)C)NC(=O)C(CC(C)C)N(C)C(=O)C(C(C)C)NC1=O (stereo partly specified)	N
8. CCN1C[C@]2(C)CC[C@H](O)[C@]34C1C(C[C@H]23)[C@@]12CC[C@H](CC14)[C@](O)(COC(=O)c1ccc(OC)c(OC)c1)[C@H]2O (stereo partly specified)	N
9. CO[C@@H](/C=C/CC/C=C/C(=O)O)[C@@H](O)[C@H](C)[C@@H](O)/C(C)=C/[C@H](C)C(=O)CCCC1CC(=O)NC(=O)C1	N
10. C[C@]12CC(O)C3[C@@H](CCC4C[C@@H](O)CC[C@@]43CO)[C@@]1(O)CCC2C1=CC(=O)OC1 (stereo partly specified)	N
11. COc1ccc(C23Oc4cc(OC)cc(OC)c4[C@](O)([C@H](c4ccccc4)C2C(=O)NCCCCNC(=O)c2ccccc2)[C@@H]3O)cc1 (stereo partly specified)	N
12. CC[C@@H]1CN2CC[C@@]3(O)C(=Nc4cccc(OC)c43)[C@@H]2C[C@@H]1/C(=C\OC)C(=O)OC	N
13. CNCCc1ccc(O)cc1	N
14. CC(=O)N[C@H]1CCN2CCC[C@H]12	N
15. O=C(c1ccccc1O)c1[nH]c(Cl)c(Cl)c1-n1c(C(=O)c2ccccc2O)cc(Cl)c1Cl	Y
16. CCC[C@H]1CC[C@H]2[C@H](C)CCC[C@H]2N1	N

* * *

- measurementDescription: Confirmatory qHTS for activators (rescue) of SARS-CoV-2 Cytopathic Effect (CPE) (AID 1508606); further: nearly all actives have a fitted effect of over 70% in size
- studyConditions: Vero E6 SARS-CoV-2 CPE rescue, viability luminescence; series mostly up to 20 µM
Results filed as inconclusive are left out. Calls of active or inactive are those of the source. Calls come from the whole dose curve.
Outcome codes: active, inactive

1. Cn1cc(-c2ccncc2)c(-c2ccc(OCc3ccc4ccccc4n3)cc2)n1	inactive
2. CC(=O)O[C@@H]1CC2C(C)(C)C(=O)C=C[C@]2(C)C2CC[C@]3(C)C(=CC(=O)O[C@H]3c3ccoc3)[C@@]21C (stereo not given in full)	active
3. N#Cc1c(C2CCNCC2)cc(-c2c(O)cccc2OCC2CC2)nc1N	active
4. CCCCCCCCCCCCc1ccc(S(=O)(=O)Nc2nncs2)cc1	inactive
5. COc1ccc(CCNCc2ccc(OC)c3ccccc23)cc1	active

* * *

- measurementDescription: Primary redox qHTS assay for identification of artifact compounds. (AID 1845223)
- studyConditions: Amplex Red/HRP redox cycling with DTT, fluorescence; series mostly up to 53.8 µM
Inconclusive results are not listed. Calls of active or inactive are those of the source. Calls follow the shape of the dose curve; as a rule, active = well fitted activation curve with a large enough effect; inconclusive = small, poorly fitted or top-dose-only effect; inactive = flat fitted curve, though single readings scatter.
endpointLabel: redox activity (% of DA3003)

1. CCC(C)C1NC(=O)C(C(C)=O)=C1O (centres undefined)	inactive
2. CC(=O)O[C@H]1C[C@]2(O)[C@@H]3CC[C@@H]4C[C@@H](O)CC[C@]4(C)[C@H]3CC[C@]2(C)[C@H]1c1ccc(=O)oc1	inactive
3. C[C@]12CC[C@H](O[C@@H]3O[C@H](CO)[C@@H](O)[C@H](O)[C@H]3O)CC1=CC[C@@H]1C2CC[C@]2(C)[C@@H](C3=CC(=O)OC3)CC[C@]12O (some centres undefined)	inactive
4. C#CC1(O)CCC2C3CCC4=CC(=O)CCC4=C3C=CC21C (centres undefined)	inactive
